system: HCT-15
parameter-measured: GI50

Please review the entries below; each comes with its answer.
INSERT INTO measurements (compound, experimental_result) VALUES
  ('O=C(c1ccccc1)n1c2ccc(Br)cc2c2nc3ccccc3nc21', '> 100 µM'),
  ('Cc1c2c(n3c(nc4ccccc43)c1C#N)N(c1ccc(Cl)cc1)CC2', '> 100 µM'),
  ('CN(C)C(=S)N1C(=S)N(c2ccccc2)C(=N/c2ccccc2)/C1=N\c1ccccc1', '> 100 µM'),
  ('[O-][n+]1c2c([n+]([O-])c3ccccc31)-c1cccc3cccc-2c13', '> 100 µM'),
  ('COc1cc(/C=N/N=C(\N)NO)c(Cl)cc1O', '46.5 µM'),
  ('COc1ccc([Se]c2ccc(OC)cc2)cc1', '68.1 µM');

Data request: What value of GI50 has been reported for the following compound? CC1(C)OC2CC(=O)OCC23C1CC(=O)C1(C)C3CCC2(C)C(c3ccoc3)OC(=O)C3OC321 (stereo not given)
Data returned: > 125 µM

Data request: I am curious: what GI50 value has been reported for COc1c(O)cc2c(c1O)C1O[C@H](CO)C(O)[C@H](O)[C@H]1OC2=O (stereo not given in full) ?
Data returned: > 100 µM

Data request: What value of GI50 has been reported for the following compound? `COc1ccc(NC(=O)CC(=O)n2nc(-c3ccccc3)c(/N=N/c3ccccc3C)c2-c2ccccc2)cc1`
Data returned: 35.5 µM

Data request: Dear colleague, I am looking for the recorded GI50 of the following compound: O=C1CCC(c2ccccc2)C(O)(C(=O)O)C1 (stereo not given)
Data returned: > 100 µM

====

system: A498; assay: NCI tumour cell line growth inhibition, 48 h
Activity calls are given as the source filed them. Rule as the data show it: active = GI50 up to about 1.1 µM and inactive = higher.
Response enum: active, inactive

INSERT INTO results (compound, class) VALUES
  ('CC1=C(N2CC2)C(=O)c2nc3n(c2C1=O)CCC3O (centres undefined)', 'active'),
  ('[O-][S@@+]1c2ccc3ccccc3c2N[C@@H]2[C@H]1[C@H]1C=C[C@@H]2C1', 'inactive'),
  ('COc1ccc2cc(C(=O)c3ccccc3C(=O)O)ccc2c1', 'inactive');

Continue with the next compound.
Data request: Each compound tested received a call. Report the one for `CN(/N=C/c1ccc(Cl)c(Cl)c1)C1=NCCCCN1` .
Data returned: inactive

====

test system: SW-620; experiment: NCI tumour cell line growth inhibition, 48 h
Calls of active or inactive are those of the source. Cut-off read from the data, not from the text of the source: active = GI50 up to about 1.1 µM and inactive = higher.
parameter-measured: GI50

Recorded results for 4 molecules are shown here.
INSERT INTO results (molecule, parameter_measured, experimental_result) VALUES
  ('C1=C2/CC[C@H](Sc3ccccc3)C2C2(CCCCC/1)OCCO2 (stereo not given in full)', 'GI50', '28.1 µM (inactive)'),
  ('O=C(O)CC(NC(=O)/C(=C/c1ccccc1)NC(=O)c1ccccc1)C(=O)O (stereo not given)', 'GI50', '> 100 µM (inactive)'),
  ('COC(=O)C1C2CC3C(OC(=O)C31)C2I (stereo not given)', 'GI50', '> 100 µM (inactive)'),
  ('Cc1cc(C)cc(NC(=O)CCC(=O)C2CCC/C2=N\NC(=O)C(=O)NN)c1 (stereo not given)', 'GI50', '> 100 µM (inactive)');

We now examine a further molecule.
Data request: I'm curious: which GI50 was measured for N#Cc1c(-c2ccccc2)[nH]c(=O)n(C2OC(CO)C(O)C(O)C2O)c1=O (stereo not given) tested on SW-620?
Data returned: > 100 µM (inactive)

====

tested on: CCRF-CEM; assay: NCI tumour cell line growth inhibition, 48 h
Active and inactive are the calls of the source. Rule as the data show it: active = GI50 up to about 1.1 µM and inactive = higher.
Let's look at some compounds and their measured GI50.

Guide cases for GI50, answers given:
INSERT INTO measurements (compound, experimental_result) VALUES
  ('CCCCCCCCCCCCCCCCCC(=O)Nc1ccn(C2OC(CO)C(O)C2O)c(=O)n1 (stereo not drawn)', '0.097 µM (active)'),
  ('COc1ccc(/C=C2\CCC(CNc3ccc(OC)cc3)C2=O)cc1 (stereo not drawn)', '3.37 µM (inactive)'),
  ('CC1=C(N2CC2)C(=O)c2nc3n(c2C1=O)CCC3O (stereo not drawn)', '1.36 µM (inactive)'),
  ('CC1(Br)C(=O)NC(=O)N(C2CC(N=[N+]=[N-])C(CO)O2)C1N=[N+]=[N-] (stereo not drawn)', '53.1 µM (inactive)');

Data request: Reported GI50 for CCRF-CEM, given CC(=O)O[C@]12CCCCC1C1(O)C(O)CCCCC12 (stereo partly drawn) ?
Data returned: > 100 µM (inactive)

Data request: Find the measured GI50: item `CCCC[C@@H](C)/C=C1\CN2CCC[C@H]2[C@@](C)(O)[C@@H]1O` , target or system CCRF-CEM.
Data returned: 12.3 µM (inactive)

Data request: Requested read-out GI50, target or system CCRF-CEM, entry CC(C)(C)[Si](C)(C)OCC1OC(n2cnc3c(N)ncnc32)CC1O (stereo not drawn)
Data returned: 22.6 µM (inactive)

Data request: Enter reported GI50 observed with CCRF-CEM for CC(CC[C@@]1(O)OC2C[C@H]3[C@@H]4CC[C@H]5CC(OC6OC(CO)C(OC7OC(CO)C(O)C(OC8OCC(O)C(O)C8O)C7OC7OC(CO)C(O)C(O)C7O)C(O)C6O)[C@H](O)CC5(C)[C@H]4CCC3(C)C2[C@@H]1C)COC1OC(CO)C(O)C(O)C1O (stereo partly drawn)
Data returned: 3.26 µM (inactive)

====

Measured GI50, listed per entry for reference.
system: 786-0; assay: NCI tumour cell line growth inhibition, 48 h
Active and inactive are the calls of the source. No stated cut-off is given here; in the data, active = GI50 up to about 1.1 µM and inactive = higher.

INSERT INTO results (molecule, experimental_result) VALUES
  ('CN(C)c1ccc(/C=C2\Oc3cc(O)ccc3C2=O)cc1', '> 100 µM (inactive)'),
  ('N#Cc1c(-c2ccccc2)[nH]c(=O)n(C2OC(CO)C(O)C(O)C2O)c1=O (stereo not given)', '> 100 µM (inactive)'),
  ('[O-][S@@+]1c2ccc3ccccc3c2N[C@@H]2[C@H]1[C@H]1C=C[C@@H]2C1', '64.3 µM (inactive)'),
  ('O=c1c2c(c1=O)C1(SCCCS1)c1cc(Cl)ccc1O2', '> 100 µM (inactive)'),
  ('CN(C)c1ccc2c(=O)c3ccccc3oc2n1', '> 100 µM (inactive)'),
  ('C[n+]1c(-c2ccc(/C=N\NC(=O)c3ccc(C(=O)N/N=C/c4ccc(-c5cn6ccsc6[n+]5C)cc4)cc3)cc2)cn2ccsc21', '16.6 µM (inactive)'),
  ('Cc1nc2ccc(NC(=S)Nc3ccccc3)cc2c(=O)n1-c1ccccc1', '> 100 µM (inactive)'),
  ('C[C@@H](c1ccccc1)C(CC#N)[C@H]1CCC[C@]1(O)C#Cc1ccc2c(c1)OCO2 (stereo not given in full)', '17.5 µM (inactive)');

Data request: # input molecule: `CCOC(=O)/C(=C/c1cc(OC)ccc1OC)CC(=O)O` ; wanted: its GI50
Data returned: > 31.6 µM (inactive)

Data request: GET /values?readout=GI50&item= `Cc1cc(=O)n2nc(CSc3nnc(S)s3)sc2n1`
Data returned: > 100 µM (inactive)

====

The entries below come with measured GI50 values attached.
tested on: RPMI-8226; test: NCI tumour cell line growth inhibition, 48 h
Activity calls are given as the source filed them. Rule as the data show it: active = GI50 up to about 1.1 µM and inactive = higher.

INSERT INTO measurements (compound, parameter_measured, experimental_result) VALUES
  ('COC(=O)c1ccc(CCc2cc(O)c(Br)cc2O)cc1', 'GI50', '3.35 µM (inactive)'),
  ('O=C(O)C12CCCC(CCC1)C2', 'GI50', '> 100 µM (inactive)'),
  ('Nc1ccc2c(c1)CN1C(=O)c3ccccc3C1=N2', 'GI50', '74.6 µM (inactive)');

Would you kindly look at the next entry?
Data request: Please report the recorded GI50 for Cc1ccc(-c2cc(-c3ccco3)c(C#N)c(=O)n2C2OC(OC(=O)c3ccccc3)C(OC(=O)c3ccccc3)C2OC(=O)c2ccccc2)cc1 (centres undefined) .
Data returned: > 100 µM (inactive)

====

tested on: OVCAR-8; assay: NCI tumour cell line growth inhibition, 48 h
Calls of active or inactive are those of the source. Cut-off read from the data, not from the text of the source: active = GI50 up to about 1.1 µM and inactive = higher.
Select the correct class. Options are 1 (active), 0 (inactive) and nothing else.

Past entries and their recorded results:
INSERT INTO results (molecule, subject_of_test, class) VALUES
  ('O=C1NC(=O)C(C(=O)C(=O)Nc2ccc(Cl)cc2Cl)C(=O)N1', 'OVCAR-8', 0),
  ('CCOC(=O)C(CS)NC(=O)CCCCCCCC(=O)NC(CS)C(=O)OCC (stereo not given)', 'OVCAR-8', 0);

Next up:
Data request: Called result for O=c1[nH]c(=O)n(C2CC(O)C(O)C(CO)O2)cc1F (stereo not given)
Data returned: 0
